Taken from ChEMBL document CHEMBL1139076.

System: HeLa
Test: Cytotoxicity against human HeLa cells assessed as viability at 5 uM after 48 hrs by MTT method relative to control
Type: functional
Details: read-out: Activity
Binarize viability at 5 µM at 70%; below is Fulfilled, at or above is Not fulfilled.

1) Cc1n[nH]c2c1C(c1ccccc1)C1=C(COC1=O)N2 (stereo unspecified) = Not fulfilled
2) CSc1ccc(C2C3=C(COC3=O)Nc3[nH]nc(C)c32)cc1 (stereo unspecified) = Fulfilled
3) Cc1n[nH]c2c1C(c1ccc(Cl)c(Cl)c1)C1=C(COC1=O)N2 (stereo unspecified) = Not fulfilled
4) Cc1n[nH]c2c1C(c1cnn(-c3ccccc3)c1Cl)C1=C(COC1=O)N2 (stereo unspecified) = Fulfilled

---

Tested on: HeLa
Assay: Cytotoxicity against human HeLa cells assessed as viability at 5 uM after 48 hrs by MTT method relative to control
Type: functional
Details: read-out: Activity
Binarize viability at 5 µM at 80%; below is YES, at or above is NO.

1) COc1cc(C2C3=C(COC3=O)Nc3[nH]nc(C)c32)cc(Br)c1OC(C)=O (centres undefined) = YES
2) COc1cc([C@H]2C3=C(COC3=O)Nc3cc4c(cc32)OCO4)cc(OC)c1OC = YES
3) CCOc1c(Br)cc(C2C3=C(COC3=O)Nc3[nH]nc(C)c32)cc1OC (centres undefined) = YES
4) COc1cc([C@@H]2c3cc4c(cc3[C@@H](O[C@@H]3O[C@@H]5CO[C@@H](C)O[C@H]5[C@H](O)[C@H]3O)[C@H]3COC(=O)[C@H]23)OCO4)cc(OC)c1O [ETOPOSIDE] = NO
5) C=C(C)[C@@H]1CC=C(C2C3=C(COC3=O)Nc3[nH]nc(C)c32)CC1 (some centres undefined) = NO
6) Cc1n[nH]c2c1C(C)C1=C(COC1=O)N2 (centres undefined) = YES
7) Cc1n[nH]c2c1C(c1ccc(N(C)C)c(Br)c1)C1=C(COC1=O)N2 (centres undefined) = YES

---

Listed below: viability at 5 µM values for each entry.
Test system: HeLa
Test: Cytotoxicity against human HeLa cells assessed as viability at 5 uM after 48 hrs by MTT method relative to control
Format: functional
Settings: read-out: Activity
test-readout: viability at 5 µM (%)

1. Cc1n[nH]c2c1C(c1ccccc1[N+](=O)[O-])C1=C(COC1=O)N2 (configuration not stated) = 71
2. Cc1n[nH]c2c1C(c1ccc(C3C4=C(COC4=O)Nc4[nH]nc(C)c43)cc1)C1=C(COC1=O)N2 (configuration not stated) = 56
3. Cc1n[nH]c2c1C(c1ccccc1Br)C1=C(COC1=O)N2 (configuration not stated) = 57
4. Cc1n[nH]c2c1C(c1ccsc1)C1=C(COC1=O)N2 (configuration not stated) = 98
5. Cc1n[nH]c2c1C(c1cccc(F)c1)C1=C(COC1=O)N2 (configuration not stated) = 99
6. Cc1n[nH]c2c1C(c1c(C)nc3sccn13)C1=C(COC1=O)N2 (configuration not stated) = 84
7. COc1ccc(C2C3=C(COC3=O)Nc3[nH]nc(C)c32)cc1 (configuration not stated) = 73

---

Listed below: viability at 5 µM values for each entry.
Test system: HeLa
Test: Cytotoxicity against human HeLa cells assessed as viability at 5 uM after 48 hrs by MTT method relative to control
Type: functional
Conditions: read-out: Activity
test-readout: viability at 5 µM

1) Cc1n[nH]c2c1C(c1cc(Br)c(O)c(Br)c1)C1=C(COC1=O)N2 (stereo not given) = 58%
2) Cc1n[nH]c2c1C(c1ccc(OC(F)(F)F)cc1)C1=C(COC1=O)N2 (stereo not given) = 97%
3) COc1ccc(C2C3=C(COC3=O)Nc3[nH]nc(C)c32)cc1OC (stereo not given) = 73%
4) Cc1n[nH]c2c1C(c1cccc(Cl)c1)C1=C(COC1=O)N2 (stereo not given) = 43%
5) COc1cc(C2C3=C(COC3=O)Nc3[nH]nc(C)c32)cc(OC)c1OC (stereo not given) = 50%
6) Cc1n[nH]c2c1C(c1ccncc1)C1=C(COC1=O)N2 (stereo not given) = 94%
7) Cc1n[nH]c2c1C(c1cccc(Br)c1)C1=C(COC1=O)N2 (stereo not given) = 51%
8) COc1cc2c(cc1OC)[C@@H](c1cc(OC)c(OC)c(OC)c1)C1=C(COC1=O)N2 = 53%
9) COc1cc([C@@H]2c3cc4c(cc3[C@H](O)[C@H]3COC(=O)[C@H]23)OCO4)cc(OC)c1OC = 19%
10) Cc1n[nH]c2c1C(c1ccc(Br)cc1)C1=C(COC1=O)N2 (stereo not given) = 62%
